// data source = PubChem BioAssay AID504882

# Test system: EBV lymphoblastoid cells (LCL) viability, plate reader
# assay explanation: cytotoxicity in EBV lymphoblastoid cells, dose response, cytotoxicity control, cell-based, plate reader, cherry-picks, set 2 (AID 504882)
Results filed as inconclusive are left out.
# AC50 listing for each entry below

{"smiles entry": "O=C(CF)N(O)c1ccc(C=Cc2ccccc2)cc1", "AC50": "4.21 µM"}
{"smiles entry": "COc1ccc(C=C2CS(=O)(=O)CC(=Cc3ccc(OC)cc3)C2=O)cc1", "AC50": "0.675 µM"}
{"smiles entry": "Cc1cc(=O)[nH]c(N=N/C(=N/Nc2ccccc2C)c2ccccc2)n1", "AC50": "8.28 µM"}
{"smiles entry": "COc1ccc(Cc2nnc(N/N=C/c3ccc(O)cc3)[nH]c2=O)cc1OC", "AC50": "4.05 µM"}
{"smiles entry": "CS(=O)(=O)c1ncc(Cl)c(C(=O)Nc2ccc(OC(F)F)cc2)n1", "AC50": "4.53 µM"}
{"smiles entry": "C=CCNC(=S)N/N=C(\\C)c1ccccn1", "AC50": "0.13 µM"}
